- System: NCI-H23
- experimental.details: NCI tumour cell line growth inhibition, 48 h
The source made the active and inactive calls. Cut-off read from the data, not from the text of the source: active = GI50 up to about 1.1 µM and inactive = higher.
Lab note: assign the record to one of true (active), false (inactive)

In: Test call for this molecule, please: "Cc1cn2c(C)csc2c1P(=O)(OC(C)C)OC(C)C"
Out: false

In: Test call for this molecule, please: COc1cc2c(cc1OC)C(Cl)C(c1ccc(Cl)c(Cl)c1)=C2Cl (configuration not stated)
Out: false

In: Test call for this molecule, please: C=CCNC(=O)N(CCCC(NC(C)=O)C(=O)NCc1ccccc1)Cc1ccccc1 (configuration not stated)
Out: false

In: Test call for this molecule, please: "O=C(O)/C=C\C(=O)Nc1ccccn1"
Out: false

In: Test call for this molecule, please: "O=[N+]([O-])C(=C1NCCN1)/C(Cl)=C(\Cl)Br"
Out: false

In: Test call for this molecule, please: "O=C1C=CC(=O)c2nc3c(cc21)CCC3"
Out: false

In: Test call for this molecule, please: CC(=O)OC[C@H]1O[C@@H](O[C@H]2[C@H](OC(C)=O)C=CO[C@@H]2COC(C)=O)C(OC(C)=O)[C@H]2OC(C)(C)O[C@H]21 (some centres not stated)
Out: false

In: Test call for this molecule, please: "COc1cc(/C=C\c2ccc(Br)cc2)cc(OC)c1OC"
Out: true

In: Test call for this molecule, please: "COc1cccc2c1C(=O)C(=O)c1c-2oc(=O)c2cc(C)cc(OC)c12"
Out: false

In: Test call for this molecule, please: "CCOC(=O)/C(=C\c1cccc(C)c1)C(C)=O"
Out: false

In: Test call for this molecule, please: "CCC1=CC2CN3Cn4c(c(COCc5c6n(c7ccccc57)CN5CC7C=C(CC)C5C6(C(=O)OC)C7)c5ccccc54)C(C(=O)OC)(C2)C13"
Out: false

In: Test call for this molecule, please: Cc1cc(C)c(C2CC(O)C(CO)O2)cc1C (configuration not stated)
Out: false

In: Test call for this molecule, please: "CCN(CC)Cc1cc(Nc2ccnc3ccc4c(nnn4C)c23)ccc1O"
Out: false

In: Test call for this molecule, please: "CCCCCCCCCCCC(=O)c1c(O)cccc1O"
Out: false

In: Test call for this molecule, please: "CCCN(CCC)C(=O)c1c(N2CCN(C)CC2)c2cccnc2n2c(C)cnc12"
Out: false

In: Test call for this molecule, please: "CC(C)(C)C1CCC2(CC1)CCN(CCCN1CCOCC1)CC2"
Out: false

In: Test call for this molecule, please: Brc1cccc(C2SCc3nc4ccccc4n32)c1 (configuration not stated)
Out: false

In: Test call for this molecule, please: O=C(CC(O)(C(F)(F)F)C(F)(F)F)C(CCCl)C(O)(C(F)(F)F)C(F)(F)F (configuration not stated)
Out: false

In: Test call for this molecule, please: "Cn1c(CO)ccc1-c1ccc(-c2ccc[se]2)[se]1"
Out: false

In: Test call for this molecule, please: "Cc1ccc([Se][Se]c2ccc(C)cc2)cc1"
Out: false

In: Test call for this molecule, please: "N#Cc1c(-c2ccc([N+](=O)[O-])cc2)cc(-c2ccc(Nc3ccnc4cc(C(F)(F)F)ccc34)cc2)nc1N"
Out: false

In: Test call for this molecule, please: "CCCc1c2c([nH]c(=O)c1C)C(=O)c1[nH]c(=O)c(C)c(CCC)c1C2=O"
Out: false
